Data origin, for the record: the supplement of paper PMC7125110

B1: glmS ribozyme (parent)
chain: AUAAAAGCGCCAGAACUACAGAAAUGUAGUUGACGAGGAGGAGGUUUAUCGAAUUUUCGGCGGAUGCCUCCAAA

- Variants of: B1
- Test: self-cleavage kobs at 10000 uM GlcN6P; higher = faster cleavage; RNA array
- Experimental Parameters: with glucosamine-6-phosphate
Fewer inactive variants are shown than the library holds.
I would appreciate it if you labelled entries YES when self-cleavage kobs at 10000 uM GlcN6P is 0.0001 s⁻¹ or higher, otherwise NO.

Use these answered entries as a reference point.
1) G37U C58G G63U; NO
2) A6U G13C A15U; NO
3) G7C G41C; NO
4) C16U A33G C50U U54G; NO
5) G38A C71A; NO
6) G41A G60A G63U; NO

Given the entry A39C U54A , answer whether its self-cleavage kobs at 10000 uM GlcN6P meets or surpasses 0.0001 s⁻¹.
YES

Entry G7A U54G : is its self-cleavage kobs at 10000 uM GlcN6P no less than 0.0001 s⁻¹?
NO

Exam item: decide whether the reported self-cleavage kobs at 10000 uM GlcN6P for C16A U56A is at least 0.0001 s⁻¹.
YES

Answer whether self-cleavage kobs at 10000 uM GlcN6P of U55A C67G is greater than or equal to 0.0001 s⁻¹.
YES

Given the entry C10G G43A A48G U54G C58A A64U , answer whether its self-cleavage kobs at 10000 uM GlcN6P meets or surpasses 0.0001 s⁻¹.
NO

self-cleavage kobs at 10000 uM GlcN6P >= 0.0001 s⁻¹ for A6G C34A A39G ?
NO

Determine whether measured self-cleavage kobs at 10000 uM GlcN6P meets or exceeds 0.0001 s⁻¹ for G40A A48U
YES

Decide: is the reported value of self-cleavage kobs at 10000 uM GlcN6P for A15C C34A G37U G41A equal to or greater than 0.0001 s⁻¹?
NO

Entry U56G G60A : is its self-cleavage kobs at 10000 uM GlcN6P no less than 0.0001 s⁻¹?
NO

Please check the record G7A A12G and state if its self-cleavage kobs at 10000 uM GlcN6P is at or above 0.0001 s⁻¹.
NO

Quick check, self-cleavage kobs at 10000 uM GlcN6P >= 0.0001 s⁻¹? A36U C58G C70A
NO

Does self-cleavage kobs at 10000 uM GlcN6P meet or surpass 0.0001 s⁻¹ for A12U C16G G29A C67G ?
YES

Reported self-cleavage kobs at 10000 uM GlcN6P at or above 0.0001 s⁻¹? A42G A52G U65G
YES

Quick check: does C11A A33C A42C C50G have self-cleavage kobs at 10000 uM GlcN6P greater than or equal to 0.0001 s⁻¹?
NO
